Record: Index reported on Melatonin receptor (Coturnix japonica).
readout-kind: Index

Consider the reported Index for these molecules:
[[record]]
compound_smiles = "CCC(=O)NCCCn1c(C(=O)OC)cc2ccc(OC)cc21"
value_measured = 1.06

[[record]]
compound_smiles = "COc1ccc2ccn(CCNC(=O)C3CC3)c2c1"
value_measured = 0.44

[[record]]
compound_smiles = "O=C(NCCn1ccc2ccccc21)C1CCC1"
value_measured = 0.25

[[record]]
compound_smiles = "COc1ccc2[nH]c(-c3ccccc3)c(CCNC(C)=O)c2c1"
value_measured = 0.78

[[record]]
compound_smiles = "O=C(NCCn1c(-c2ccccc2)cc2ccccc21)C1CCC1"
value_measured = 0.25


(1) O=C(NCCn1ccc2ccccc21)C1CC1
(2) COc1ccc2ccn(CCNC(=O)C(F)(F)F)c2c1
Qu. Hey, between 1 and 2 which has a smaller measured Index? Indicate your choice by writing its label.
Ans. 1
(1: 0.2, 2: 0.99)

(1) CCC(=O)NCCn1c(I)cc2cc(OC)ccc21
(2) CCC(=O)NCCn1c(Br)cc2ccc(OC)cc21
Qu. Identify the entry with the larger Index. Options: 1 and 2 Indicate your choice by writing its label.
Ans. 2
(2: 1.2, 1: 0.8)

---

Record: Index reported on Melatonin receptor (Coturnix japonica).
readout-kind: Index

[[record]]
compound_smiles = "COc1ccc2ccn(CCNC(=O)C3CC3)c2c1"
readout_kind = "Index"
value_measured = 0.32


(A) O=C(NCCn1ccc2ccccc21)C1CC1
(B) CCC(=O)NCCn1ccc2cc(OC)ccc21
(C) CCC(=O)NCCn1ccc2ccc(OC)cc21
Qu. Order the 3 molecules from highest to lowest Index. Please list the labels in the order you were asked to rank them.
Ans. C, B, A
(C: 0.98, B: 0.29, A: 0.14)
